Target: ERR1 (also known as ERR-α or ERR-1) (Homo sapiens, UniProt P11474)
Assay: TR-FRET assay (disruption of co-activator peptide binding to ERR1 LBD)
Details: 6 nM 6His-ERR1LBD, 6 nM GST-SRC-2 peptide; average of 3 independent experiments
experimental_readout: log10(EC50) (log10 of the value in nM)
Could you please treat all values as log10 of EC50 in nM?

For every listed record, write down its log10(EC50).
1. O=C1S/C(=C\c2ccc3c(cnn3Cc3ccc(Cl)cc3C(F)(F)F)c2)C(=O)N1N1CCNCC1
2. O=C1S/C(=C\c2ccc3c(cnn3Cc3ccc(Cl)cc3C(F)(F)F)c2)C(=O)N1CCN1CCN[C@@H](CO)C1
3. O=C1S/C(=C\c2ccc3c(cnn3Cc3ccc(Cl)cc3C(F)(F)F)c2)C(=O)N1C[C@@H]1CCCNC1
4. O=C1S/C(=C\c2ccc3c(cnn3Cc3ccc(C(F)(F)F)cc3C(F)(F)F)c2)C(=O)N1[C@@H]1CCNC[C@H]1O (relative stereo)
5. CCN1CC[C@@H](N2C(=O)S/C(=C\c3ccc4c(cnn4Cc4ccc(Cl)cc4C(F)(F)F)c3)C2=O)[C@H](F)C1 (single isomer, unassigned) [Compound 326]
6. O=C1S/C(=C\c2ccc3c(cnn3Cc3ccc(Cl)cc3C(F)(F)F)c2)C(=O)N1Cc1nc[nH]n1
7. CN1CC[C@H](N2C(=O)S/C(=C\c3ccc4c(cnn4Cc4ccc(Cl)cc4C(F)(F)F)c3)C2=O)C1
8. CN(C)CCCN1C(=O)S/C(=C\c2ccc3c(ccn3Cc3ccc(C(F)(F)F)cc3C(F)(F)F)c2)C1=O

1: 1.34; 2: 2.56; 3: 1.76; 4: 1.58; 5: 2.15; 6: 1.45; 7: 1.40; 8: 2.00

====

Target: ERR1 (also known as ERR-α or ERR-1) (Homo sapiens, UniProt P11474)
Assay: TR-FRET assay (disruption of co-activator peptide binding to ERR1 LBD)
Conditions: 6 nM 6His-ERR1LBD, 6 nM GST-SRC-2 peptide; average of 3 independent experiments
For each record, write down the corresponding EC50.

Query the reported EC50 for ERR1 (also known as ERR-α or ERR-1) (Homo sapiens, UniProt P11474); item: CS(=O)(=O)NN1C(=O)S/C(=C\c2ccc3c(c2)c(I)nn3Cc2ccc(Cl)cc2C(F)(F)F)C1=O
4 nM

For every listed record, write down its EC50.
1. CN1CCN(N2C(=O)S/C(=C\c3ccc4c(cnn4Cc4ccc(Cl)cc4C(F)(F)F)c3)C2=O)CC1
2. O=C1S/C(=C\c2ccc3c(cnn3Cc3ccc(Cl)cc3C(F)(F)F)c2)C(=O)N1CCN1CC(F)(F)C1
3. NS(=O)(=O)NC(=O)CN1C(=O)S/C(=C\c2ccc3c(cnn3Cc3ccc(C(F)(F)F)cc3C(F)(F)F)c2)C1=O

["24 nM", "127 nM", "650 nM"]

====

Target: ERR1 (also known as ERR-α or ERR-1) (Homo sapiens)
Experiment: TR-FRET assay (disruption of co-activator peptide binding to ERR1 LBD)
Details: 6 nM 6His-ERR1LBD, 6 nM GST-SRC-2 peptide; average of 3 independent experiments
Classes by EC50: label 0 = under 20 nM, label 1 = from 20 nM up to 100 nM, label 2 = 100 nM and over

Which category does the recorded EC50 put O=C1S/C(=C\c2ccc3c(cnn3Cc3ccc(Cl)cc3C(F)(F)F)c2)C(=O)N1N1CCN(CCO)CC1 in?
label 0

New cases:
Which category does the recorded EC50 put CS(=O)(=O)NN1C(=O)S/C(=C\c2ccc3c(c2)c(F)nn3Cc2ccc(Cl)cc2C(F)(F)F)C1=O in?
label 0

Which category does the recorded EC50 put COc1ccc(Cn2ncc3cc(/C=C4\SC(=O)N(C5CCN(S(N)(=O)=O)CC5)C4=O)ccc32)c(C(F)(F)F)c1 in?
label 0

Which category does the recorded EC50 put CN1[C@@H]2CC[C@H]1C[C@H](N1C(=O)S/C(=C\c3ccc4c(cnn4Cc4ccc(C(F)(F)F)cc4C(F)(F)F)c3)C1=O)C2 in?
label 0

Which category does the recorded EC50 put O=C1S/C(=C\c2ccc3c(cnn3Cc3ccc(Cl)cc3C(F)(F)F)c2)C(=O)N1CCN1CCNS1(=O)=O in?
label 1

Which category does the recorded EC50 put CC1(C)OCC(CN2C(=O)S/C(=C\c3ccc4c(cnn4Cc4ccc(Cl)cc4C(F)(F)F)c3)C2=O)O1 (centres unmarked) in?
label 1

Which category does the recorded EC50 put CS(=O)(=O)NCCN1C(=O)S/C(=C\c2ccc3c(cnn3Cc3ccc(Cl)cc3C(F)(F)F)c2)C1=O [Compound 158] in?
label 1

Which category does the recorded EC50 put CN(C)CCCN1C(=O)S/C(=C\c2ccc3c(ccn3Cc3ccc(C#N)cc3C(F)(F)F)c2)C1=O in?
label 2

Which category does the recorded EC50 put CN(C)CCN1C(=O)S/C(=C\c2ccc3c(ccn3Cc3ccc(F)cc3C(F)(F)F)c2)C1=O in?
label 2

Which category does the recorded EC50 put CCN1CC[C@@H](N2C(=O)S/C(=C\c3ccc4c(cnn4Cc4ccc(Cl)cc4C(F)(F)F)c3)C2=O)[C@@H](F)C1 (relative stereo) in?
label 2

Which category does the recorded EC50 put O=C1S/C(=C\c2ccc3c(cnn3Cc3ccc(Cl)cc3C(F)(F)F)c2)C(=O)N1CCNCCO in?
label 1

Which category does the recorded EC50 put COC(=O)N1CCN(CCN2C(=O)S/C(=C\c3ccc4c(cnn4Cc4ccc(Cl)cc4C(F)(F)F)c3)C2=O)S1(=O)=O in?
label 2

Which category does the recorded EC50 put O=C1S/C(=C\c2ccc3c(cnn3Cc3ccc(Cl)cc3C(F)(F)F)c2)C(=O)N1Cc1nccs1 in?
label 1

====

Target: ERR1 (also known as ERR-α or ERR-1) (Homo sapiens)
Experiment: TR-FRET assay (disruption of co-activator peptide binding to ERR1 LBD)
Conditions: 6 nM 6His-ERR1LBD, 6 nM GST-SRC-2 peptide; average of 3 independent experiments
pEC50: −log10 of the molar value.
Returns one of criterion met or criterion not met; criterion met when pEC50 is >= 7.

Would you say CN(C)CCN1C(=O)S/C(=C\c2ccc3c(ccn3Cc3ccc(Cl)cc3C(F)(F)F)c2)C1=O shows pEC50 at minimum 7?
criterion met

Would you say O=C1S/C(=C\c2ccc3c(cnn3Cc3ccc(Cl)cc3C(F)(F)F)c2)C(=O)N1Cc1cc(O)no1 shows pEC50 at minimum 7?
criterion met

Would you say CN1CC[C@@H](N2C(=O)S/C(=C\c3ccc4c(cnn4Cc4ccc(Cl)cc4C(F)(F)F)c3)C2=O)[C@H](O)C1 (relative stereo) shows pEC50 at minimum 7?
criterion met

Would you say COCCN1C(=O)S/C(=C\c2ccc3c(ccn3Cc3ccc(F)cc3C(F)(F)F)c2)C1=O shows pEC50 at minimum 7?
criterion not met

Would you say O=C(O)c1ccccc1CN1C(=O)S/C(=C\c2ccc3c(cnn3Cc3ccc(Cl)cc3C(F)(F)F)c2)C1=O shows pEC50 at minimum 7?
criterion met

Would you say CS(=O)(=O)NN1C(=O)S/C(=C\c2ccc3c(cnn3Cc3ccc(F)cc3C(F)(F)F)c2)C1=O shows pEC50 at minimum 7?
criterion met

In the following, a different molecule is considered.
Would you say O=C1S/C(=C\c2ccc3c(cnn3Cc3ccc(C(F)(F)F)cc3C(F)(F)F)c2)C(=O)N1CCN1CCCC1 shows pEC50 at minimum 7?
criterion not met

====

For each record, write down the corresponding EC50.
Molecular target: ERR1 (also known as ERR-α or ERR-1) (Homo sapiens, UniProt P11474)
Sequence (P11474 193-421 limits assumed): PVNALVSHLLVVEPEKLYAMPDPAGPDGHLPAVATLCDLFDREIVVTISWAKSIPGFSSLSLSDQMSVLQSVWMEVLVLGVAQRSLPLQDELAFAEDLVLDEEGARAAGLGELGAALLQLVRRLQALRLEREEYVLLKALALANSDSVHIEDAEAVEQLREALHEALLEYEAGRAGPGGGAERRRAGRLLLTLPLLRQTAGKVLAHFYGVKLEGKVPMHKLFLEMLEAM
Assay: TR-FRET assay (disruption of co-activator peptide binding to ERR1 LBD)
Assay type: biochemical
Details: 6 nM 6His-ERR1LBD, 6 nM GST-SRC-2 peptide; average of 3 independent experiments
The reply should consist of the numeric value with the unit placed after it.

Item under review: O=C1S/C(=C\c2ccc3c(cnn3Cc3ccc(Cl)cc3C(F)(F)F)c2)C(=O)N1Cc1ccccn1 [Compound 137] . Reported EC50?
66 nM

For every listed record, write down its EC50.
1. CN1C(=O)S/C(=C\c2ccc3c(cnn3Cc3ccc(Cl)cc3C(F)(F)F)c2)C1=O [Compound 127]
2. O=C1CNCCC1N1C(=O)S/C(=C\c2ccc3c(cnn3Cc3ccc(Cl)cc3C(F)(F)F)c2)C1=O (centres unmarked) [Compound 341]
3. O=C(O)/C=C/CN1C(=O)S/C(=C\c2ccc3c(cnn3Cc3ccc(Cl)cc3C(F)(F)F)c2)C1=O [Compound 376]
4. CN(C)C1(CN2C(=O)S/C(=C\c3ccc4c(cnn4Cc4ccc(Cl)cc4C(F)(F)F)c3)C2=O)CCC1 [Compound 315]
5. N#CCN1CC[C@@H](N2C(=O)S/C(=C\c3ccc4c(cnn4Cc4ccc(Cl)cc4C(F)(F)F)c3)C2=O)[C@H](F)C1 [Compound 388]
6. O=C1S/C(=C\c2ccc3c(cnn3Cc3ccc(Cl)cc3C(F)(F)F)c2)C(=O)N1OCCN1CCCC1 [Compound 289]

1: 32 nM; 2: 39 nM; 3: 65 nM; 4: 71 nM; 5: 34 nM; 6: 17 nM
